- Test system: Candida albicans ATCC 90028
- assay summary: Peptidase activity detection on Columbia agar containing substrate
- Assay type: cell-based
- Set-up: key: − = no fluorescence detected; e = trace of fluorescence; +/− = weak fluorescence; + = medium fluorescence; ++ = strong fluorescence; NG = No Growth
- condition parameters: substrate 100 mg/l, 24 hours at 37° C., UV 360-365 nm
metric name: fluorescence intensity

NCCC(=O)Nc1ccccc1-c1nc2ccccc2o1 [Substrate 2]    −
C[C@H](N)C(=O)Nc1ccccc1-c1nc2ccccc2n1CCc1ccccc1 [Substrate 14]    −
C[C@H](N)C(=O)Nc1ccccc1-c1nc2ccccc2o1 [Substrate 1]    −
C[C@H](N)C(=O)Nc1cc2c(cc1-c1nc3ccccc3n1CCc1ccccc1)OCO2 [Substrate 16]    −

Now let's try a different one.
Q: Form field: reported fluorescence intensity of C[C@H](N)C(=O)Nc1ccccc1-c1nc2ccccc2s1 [Substrate 17]
Ans: NG
